assay: NCI Yeast Anticancer Drug Screen. Data for the mlh1 rad18 strain (AID 175); conditions: S. cerevisiae mlh1 rad18 strain growth inhibition; at 50.0 µM; hits give high values
About 79,000 compounds went through this panel and 15% of them were active in at least one assay; those are over-represented in the sample as a whole.
Could you label it True if measured growth inhibition is 50% or higher, and False otherwise?

{"molecule": "Cc1ccc(S(=O)(=O)OCC(/C=N/NC(N)=O)OCOC(C)/C=N/NC(N)=O)cc1 (stereo not given)", "assigned-category": "False"}
{"molecule": "Cc1cc(O)c(O)cc1C/C=C/c1ccccc1", "assigned-category": "False"}
{"molecule": "COC12C(COC(N)=O)C3=C(C(=O)C(C)=C(N)C3=O)N1CC1C2N1C(=O)c1ccc(Cl)c(Cl)c1 (stereo not given)", "assigned-category": "True"}
{"molecule": "CC(=O)OCC1OC(n2c(O)c(N=NC(N)=S)c3ccc([N+](=O)[O-])cc32)C(OC(C)=O)C1OC(C)=O (stereo not given)", "assigned-category": "True"}
